Let's look at some pIC50 data for UGT1A9 (Homo sapiens) that I collected from the literature.
Expect pIC50 as a plain number equal to -log10 of the molar concentration.

Ask: Quick one: pIC50 for O=C1CC(c2cc(-c3c(O)ccc4c(=O)cc(-c5ccc(O)cc5)oc34)c(O)cc2O)Oc2cc(O)cc(O)c21 (stereo not shown) ?
Reply: 4.39

Ask: Lookup `COc1ccc(C(=C2C=CC(=O)C=C2)c2c(-c3ccc(O)cc3)ccc(CO)c2C#Cc2ccc(O)cc2)cc1`
Reply: 5.19

Ask: Lookup COc1cc2c(cc1OC)C1C(C)c3ccc(OC)c(OC)c3CN1CC2 (stereo not shown)
Reply: 4.40
